Test system: stratum corneum
Test: PpIX fluorescence on intact skin vs skin with stratum corneum removed (permeability through stratum corneum)
Format: in vivo, human
Conditions: skin treatment: SC removed by dry shaving; Cold cream formulation; 3 hours after topical administration
Each record here notes measured Fluoresence epidermis.
Form entry: value (arbitrary relative units) — number only.

- molecule: "CC(C)CCCC(C)C1CCC2C3CC=C4CC(OC(=O)CCC(=O)CN)CCC4(C)C3CCC12C (stereo not shown)"
  assay_value: 25
- molecule: "NCC(=O)CCC(=O)OCC(O)C1OC(=O)C(O)=C1O (stereo not shown) [Compound 12, ALA-ascorbate-ester]"
  assay_value: 20
- molecule: "CCCCCCOC(=O)CCC(=O)CN [Hexyl-ALA-ester, reference compound]"
  assay_value: 88

Task: For the molecule NCC(=O)CCC(=O)O [ALA, 5-aminolevulinic acid, reference compound] , what Fluoresence epidermis is on record?
Result: 52

---

Tested on: stratum corneum
Assay: PpIX fluorescence on intact skin vs skin with stratum corneum removed (permeability through stratum corneum)
Type: in vivo, human
Conditions: skin treatment: SC removed by dry shaving; Cold cream formulation; 3 hours after topical administration
Procedure: Permeability of compounds of the invention through the stratum corneum is assessed by measurements of fluorescence of PpIX. […] Permeability of the compounds of the present invention is determined by comparing PpIX-induced fluorescence of compounds of the invention applied on the surface of intact skin with fluorescence induced by the same compounds applied on skin from which the stratum corneum has been removed. […]
measurement_label: Fluoresence epidermis (arbitrary relative units)
Form entry: value (arbitrary relative units) — number only.

Illustrative cases are given below, each with its answer.
- compound: "CCOCCOCCOC(=O)CCC(=O)CN"
  assayed_target: "stratum corneum"
  measurement_label: "Fluoresence epidermis"
  assay_value: 57
- compound: "NCC(=O)CCC(=O)Oc1ccc(CC(N)C(=O)O)cc1 (stereo not drawn)"
  assayed_target: "stratum corneum"
  measurement_label: "Fluoresence epidermis"
  assay_value: 114

Please turn your attention to the following entry.
Task: For the compound NCC(=O)CCC(=O)O[C@H]1O[C@H](CO)[C@@H](O)[C@H](O)[C@H]1O , what Fluoresence epidermis is on record?
Result: 12
